- Tested on: Thyroid gland
- protocol text: Biodistribution in thyroid of C57BL/6 mouse bearing mouse B16-F0 cells at 0.74 to 0.92 MBq, iv after 6 hrs
- Type: ADME, organism-based
- condition label: in vivo
metric: Drug uptake (% ID/g)

Below, 5 compounds whose answers are already recorded.
sample smiles	Drug uptake [% ID/g]
CCN(CC)CCNC(=O)c1ccc2cncc([125I])c2n1.Cl.Cl	56.95
CCN(CC)CCNC(=O)c1c[nH]c2ccc([125I])cc2c1=O.Cl.Cl	8.55
CCN(CC)CCNC(=O)c1nc2cc([125I])ccc2[nH]1.Cl.Cl	34.17
CCN(CC)CCNC(=O)c1cc2c([125I])cccc2cn1.Cl.Cl	48.93
CCN(CC)CCNC(=O)c1ccc([125I])nc1.Cl.Cl	7.92

[P] CCN(CC)CCNC(=O)c1cc2cc([125I])ccc2o1.Cl
[Q] CCN(CC)CCNC(=O)c1cc2c([125I])cccc2s1.Cl
[R] CCN(CC)CCNC(=O)c1cnc2cc([125I])ccc2n1.Cl.Cl
Arrange the 3 compounds from largest to smallest Drug uptake. Provide the ranking by listing each label in its place in the requested order.
Q, R, P

----------
- System: Lung
- protocol text: Biodistribution in lung of C57BL/6 mouse bearing mouse B16-F0 cells at 0.74 to 0.92 MBq, iv after 3 hrs
- Format: ADME, organism-based
- condition label: in vivo
metric: Drug uptake (% ID/g)

Below, 5 molecules whose answers are already recorded.
sample smiles	unit symbol	result number
CCN(CC)CCNC(=O)c1ccc2cncc([125I])c2n1.Cl.Cl	% ID/g	1.87
CCN(CC)CCNC(=O)c1ccc2cc([125I])ccc2n1.Cl.Cl	% ID/g	5.58
CCN(CC)CCNC(=O)c1c[nH]c2ccc([125I])cc2c1=O.Cl.Cl	% ID/g	0.88
CCN(CC)CCNC(=O)c1ccc([125I])nc1.Cl.Cl	% ID/g	3.96
CCN(CC)CCNC(=O)c1cc2cc([125I])ccc2o1.Cl	% ID/g	1.92

[a] CCN(CC)CCNC(=O)c1ccc2cc([125I])ccc2c1.Cl
[b] CCN(CC)CCNC(=O)c1cc2c([125I])cccc2cn1.Cl.Cl
Two entries are listed, a and b . Which one carries the higher Drug uptake? Write the label of whichever entry you select.
a
(a: 4.43 % ID/g, b: 2.76 % ID/g)

[I] CCN(CC)CCNC(=O)c1nc2cc([125I])ccc2[nH]1.Cl.Cl
[II] CCN(CC)CCNC(=O)c1cnc2cc([125I])ccc2n1.Cl.Cl
Two entries are listed, I and II . Which one carries the higher Drug uptake? Write the label of whichever entry you select.
II

----------
- protocol text: Biodistribution in uvea of C57BL/6 mouse bearing mouse B16-F0 cells at 0.74 to 0.92 MBq, iv after 72 hrs
- Format: ADME, organism-based, Uveal tract
- condition label: in vivo
metric: Drug uptake (% ID/g)

Below, 3 compounds whose answers are already recorded.
sample smiles	unit symbol	Drug uptake
CCN(CC)CCNC(=O)c1cc2cc([125I])ccc2o1.Cl	% ID/g	10.11
CCN(CC)CCNC(=O)c1ccc([125I])nc1.Cl.Cl	% ID/g	2.54
CCN(CC)CCNC(=O)c1cc2c([125I])cccc2cn1.Cl.Cl	% ID/g	9.73

[a] CCN(CC)CCNC(=O)c1ccc2cncc([125I])c2n1.Cl.Cl
[b] CCN(CC)CCNC(=O)c1cnc2cc([125I])ccc2n1.Cl.Cl
[c] CCN(CC)CCNC(=O)c1ccc2cc([125I])ccc2c1.Cl
Rank items: key Drug uptake, increasing. Provide the ranking by listing each label in its place in the requested order.
c, a, b

----------
- protocol text: Biodistribution in tumor of C57BL/6 mouse bearing mouse B16-F0 cells at 0.74 to 0.92 MBq, iv after 24 hrs
- Type: ADME, organism-based, Neoplasm
- condition label: in vivo
metric: Drug uptake (% ID/g)

Below, 10 compounds whose answers are already recorded.
sample smiles	result number
CCN(CC)CCNC(=O)c1cc2c([125I])cccc2s1.Cl	7.3
CCN(CC)CCNC(=O)c1cc2c([125I])cccc2cn1.Cl.Cl	7.1
CCN(CC)CCNC(=O)c1ccc2cncc([125I])c2n1.Cl.Cl	8.4
CCN(CC)CCNC(=O)c1nc2cc([125I])ccc2[nH]1.Cl.Cl	7.1
CCN(CC)CCNC(=O)c1cn2cc([125I])ccc2n1.Cl.Cl	8
CCN(CC)CCNC(=O)c1cnc2cc([125I])ccc2n1.Cl.Cl	21.7
CCN(CC)CCNC(=O)c1c[nH]c2ccc([125I])cc2c1=O.Cl.Cl	2.7
CCN(CC)CCNC(=O)c1ccc(I)cc1	3.7
CCN(CC)CCNC(=O)c1ccc([125I])nc1.Cl.Cl	2.7
CCN(CC)CCNC(=O)c1cc2cc([125I])ccc2o1.Cl	5

[I] CCN(CC)CCNC(=O)c1cc2cc([125I])ccc2[nH]1.Cl
[II] CCN(CC)CCNC(=O)c1ccc2cc([125I])ccc2n1.Cl.Cl
Two entries are listed, I and II . Which one carries the higher Drug uptake? Write the label of whichever entry you select.
II
(II: 12.1 % ID/g, I: 8.2 % ID/g)

----------
- Tested on: Spleen
- protocol text: Biodistribution in spleen of C57BL/6 mouse bearing mouse B16-F0 cells at 0.74 to 0.92 MBq, iv after 3 hrs
- Type: ADME, organism-based
- condition label: in vivo
metric: Drug uptake (% ID/g)

Below, 3 molecules whose answers are already recorded.
sample smiles	unit symbol	Drug uptake
CCN(CC)CCNC(=O)c1ccc([125I])nc1.Cl.Cl	% ID/g	2.68
CCN(CC)CCNC(=O)c1c[nH]c2ccc([125I])cc2c1=O.Cl.Cl	% ID/g	0.28
CCN(CC)CCNC(=O)c1ccc2cc([125I])ccc2c1.Cl	% ID/g	2.59

[P] CCN(CC)CCNC(=O)c1ccc2cc([125I])ccc2n1.Cl.Cl
[Q] CCN(CC)CCNC(=O)c1cc2cc([125I])ccc2[nH]1.Cl
[R] CCN(CC)CCNC(=O)c1cnc2cc([125I])ccc2n1.Cl.Cl
Rank items: key Drug uptake, increasing. Provide the ranking by listing each label in its place in the requested order.
Q, R, P
(Q: 2.79 % ID/g, R: 4.69 % ID/g, P: 10.63 % ID/g)

----------
- protocol text: Biodistribution in uvea of C57BL/6 mouse bearing mouse B16-F0 cells at 0.74 to 0.92 MBq, iv after 24 hrs
- Assay type: ADME, organism-based, Uveal tract
- condition label: in vivo
metric: Drug uptake (% ID/g)

sample smiles	Drug uptake / % ID/g
CCN(CC)CCNC(=O)c1nc2cc([125I])ccc2[nH]1.Cl.Cl	10.44
CCN(CC)CCNC(=O)c1cc2c([125I])cccc2cn1.Cl.Cl	14.55
CCN(CC)CCNC(=O)c1cc2cc([125I])ccc2[nH]1.Cl	8.81

[a] CCN(CC)CCNC(=O)c1c[nH]c2ccc([125I])cc2c1=O.Cl.Cl
[b] CCN(CC)CCNC(=O)c1cnc2cc([125I])ccc2n1.Cl.Cl
Two entries are listed, a and b . Which one carries the higher Drug uptake? Write the label of whichever entry you select.
b

----------
- Tested on: Blood
- protocol text: Biodistribution in blood of C57BL/6 mouse bearing mouse B16-F0 cells at 0.74 to 0.92 MBq, iv after 6 hrs
- Type: ADME, organism-based
- condition label: in vivo
metric: Drug uptake (% ID/g)

Below, 4 compounds whose answers are already recorded.
sample smiles	measurement target	Drug uptake [% ID/g]
CCN(CC)CCNC(=O)c1cc2cc([125I])ccc2o1.Cl	Blood	1.28
CCN(CC)CCNC(=O)c1ccc2cc([125I])ccc2n1.Cl.Cl	Blood	5.91
CCN(CC)CCNC(=O)c1cnc2cc([125I])ccc2n1.Cl.Cl	Blood	3.09
CCN(CC)CCNC(=O)c1ccc2cc([125I])ccc2c1.Cl	Blood	1.74

[A] CCN(CC)CCNC(=O)c1cc2cc([125I])ccc2[nH]1.Cl
[B] CCN(CC)CCNC(=O)c1ccc2cncc([125I])c2n1.Cl.Cl
[C] CCN(CC)CCNC(=O)c1ccc([125I])nc1.Cl.Cl
[D] CCN(CC)CCNC(=O)c1cc2c([125I])cccc2cn1.Cl.Cl
[E] CCN(CC)CCNC(=O)c1c[nH]c2ccc([125I])cc2c1=O.Cl.Cl
Rank items: key Drug uptake, increasing. Provide the ranking by listing each label in its place in the requested order.
E, A, B, D, C

----------
- Test system: Pancreas
- protocol text: Biodistribution in pancreas of C57BL/6 mouse bearing mouse B16-F0 cells at 0.74 to 0.92 MBq, iv after 1 hr
- Type: ADME, organism-based
- condition label: in vivo
metric: Drug uptake (% ID/g)

Below, 4 compounds whose answers are already recorded.
sample smiles	measurement target	result number
CCN(CC)CCNC(=O)c1cn2cc([125I])ccc2n1.Cl.Cl	Pancreas	7.52
CCN(CC)CCNC(=O)c1c[nH]c2ccc([125I])cc2c1=O.Cl.Cl	Pancreas	5.74
CCN(CC)CCNC(=O)c1nc2cc([125I])ccc2[nH]1.Cl.Cl	Pancreas	6.17
CCN(CC)CCNC(=O)c1ccc2cncc([125I])c2n1.Cl.Cl	Pancreas	1.78

[1] CCN(CC)CCNC(=O)c1cc2c([125I])cccc2cn1.Cl.Cl
[2] CCN(CC)CCNC(=O)c1cc2cc([125I])ccc2[nH]1.Cl
Two entries are listed, 1 and 2 . Which one carries the higher Drug uptake? Write the label of whichever entry you select.
2
